Method Notes: Solubility of the IR-dyes (supersaturated solution, filtration, spectrophotometric determination)
Assay type: physicochemical
Condition Summary: water/NaOH, pH 11.7, aqueous buffer, thermodynamic from solid, insoluble at pH = 9; NaOH was added until pH = 11.7; read-out: Solubility in H2O/NaOH
Outcome Measure: solubility

Given item CN1/C(=C/C=C2\CCCC(/C=C/C3=[N+](C)c4ccc5ccccc5c4C3(C)C)=C2Cl)C(C)(C)c2c1ccc1ccccc21 [Comparison, reference compound] , the value recorded as its solubility is < 2 µg/mL
